# αs1 CN, 16 hours, 30° C. per record follows
# MEASUREMENT TARGET: T1, alpha-s1 casein from Bos taurus
# T1 chain: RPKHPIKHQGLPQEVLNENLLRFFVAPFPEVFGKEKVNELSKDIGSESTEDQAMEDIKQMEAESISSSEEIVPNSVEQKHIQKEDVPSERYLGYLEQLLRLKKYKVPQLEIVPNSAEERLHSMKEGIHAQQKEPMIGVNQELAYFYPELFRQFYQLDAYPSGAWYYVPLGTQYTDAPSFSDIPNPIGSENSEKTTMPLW

PROTEIN	UNIT SPEC	αs1 CN, 16 hours, 30° C.
Maxiren (recombinant wild-type calf chymosin B) (protein) GEVASVPLTNYLDSQYFGKIYLGTPPQEFTVLFDTGSSDFWVPSIYCKSNACKNHQRFDPRKSSTFQNLGKPLSIHYGTGSMQGILGYDTVTVSNIVDIQQTVGLSTQEPGDVFTYAEFDGILGMAYPSLASEYSIPVFDNMMNRHLVAQDLFSVYMDRNGQESMLTLGAIDPSYYTGSLHWVPVTVQQYWQFTVDSVTISGVVVACEGGCQAILDTGTSKLVGPSSDILNIQQAIGATQNQYGEFDIDCDNLSYMPTVVFEINGKMYPLTPSAYTSQDQGFCTSGFQSENHSQKWILGDVFIREYYSVFDRANNLVGLAKAI	Volume	900000
bovine chymosin B variant #71 (A51V, K221V) (protein) GEVASVPLTNYLDSQYFGKIYLGTPPQEFTVLFDTGSSDFWVPSIYCKSNVCKNHQRFDPRKSSTFQNLGKPLSIHYGTGSMQGILGYDTVTVSNIVDIQQTVGLSTQEPGDVFTYAEFDGILGMAYPSLASEYSIPVFDNMMNRHLVAQDLFSVYMDRNGQESMLTLGAIDPSYYTGSLHWVPVTVQQYWQFTVDSVTISGVVVACEGGCQAILDTGTSVLVGPSSDILNIQQAIGATQNQYGEFDIDCDNLSYMPTVVFEINGKMYPLTPSAYTSQDQGFCTSGFQSENHSQKWILGDVFIREYYSVFDRANNLVGLAKAI	Volume	1.6e+06
